All values here come from paper PMC4556431.

- Tested on: Cif (CFTR inhibitory factor) (Pseudomonas aeruginosa)
- Sequence (A0A0H2ZD27 25-319 limits assumed): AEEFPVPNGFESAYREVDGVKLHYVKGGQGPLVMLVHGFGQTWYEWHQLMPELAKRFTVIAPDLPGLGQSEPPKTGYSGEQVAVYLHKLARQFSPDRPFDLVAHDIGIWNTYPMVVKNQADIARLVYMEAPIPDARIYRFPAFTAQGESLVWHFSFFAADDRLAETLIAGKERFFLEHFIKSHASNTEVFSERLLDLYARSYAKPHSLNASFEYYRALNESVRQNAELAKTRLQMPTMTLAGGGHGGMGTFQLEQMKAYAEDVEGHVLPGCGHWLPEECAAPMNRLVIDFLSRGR
- Assay summary: epoxide hydrolase inhibition assay
Outcome measure: IC50

Lookup: State recorded IC50 with Cif (CFTR inhibitory factor) (Pseudomonas aeruginosa), entry `N[C@@H](Cc1cc(I)c(Oc2cc(I)c(O)c(I)c2)c(I)c1)C(=O)O` , no comment.
Found: > 100 µM
